Reference source: paper PMC8406298

system: normal human dermal fibroblasts (NHDF) cells; experiment: Fibroblast cytotoxicity (CellTiter-Glo); type: cell-based; conditions: 10 µM
The following compounds are shown together with reported Cytotoxicity: Relative Cell Viability (% of Negative Control) values.

What the record says about COc1ccc(SCCCC(=O)Nc2ncnc3sccc23)cc1 [compound 18585630] : Cytotoxicity: Relative Cell Viability (% of Negative Control) is 104.7 % of Negative Control

Others:
What the record says about O=c1/c(=C/c2ccc(F)cc2F)sc2nc3ccccc3n12 [compound 2354424] : Cytotoxicity: Relative Cell Viability (% of Negative Control) is 81.4 % of Negative Control

What the record says about O=Cc1sc(=O)n(-c2ccccc2)c1Cl [compound 2793380] : Cytotoxicity: Relative Cell Viability (% of Negative Control) is 5.7 % of Negative Control

What the record says about O=S1(=O)CCC(NC(=S)SCc2ccccc2)C1 (stereo not drawn) [compound 2831154] : Cytotoxicity: Relative Cell Viability (% of Negative Control) is 24.3 % of Negative Control

What the record says about O=C(CSCc1ccccc1)N1CCC(c2ccsc2)CC1 [compound 71786985] : Cytotoxicity: Relative Cell Viability (% of Negative Control) is 101.7 % of Negative Control

What the record says about NC(=O)/C=C/C(=O)Nc1cccc(C(F)(F)F)c1 [compound 707936] : Cytotoxicity: Relative Cell Viability (% of Negative Control) is 3.5 % of Negative Control

What the record says about COC(=O)c1sc(S(=O)(=O)Nc2cccc(C(F)(F)F)c2)c(C(=O)OC)c1C [compound 1190482] : Cytotoxicity: Relative Cell Viability (% of Negative Control) is 90.9 % of Negative Control

What the record says about O=S(=O)(NCCN1CCN(c2ccc(Cl)cc2)CC1)c1ccc(Cl)s1 [compound 42268033] : Cytotoxicity: Relative Cell Viability (% of Negative Control) is 102.4 % of Negative Control

What the record says about CCn1c(SC/C=C\c2ccccc2)nnc1-c1ccncc1 [compound 18558862] : Cytotoxicity: Relative Cell Viability (% of Negative Control) is 88.2 % of Negative Control
